- measurement target: UniProtKB P28907
- Sequence (P28907 whole entry): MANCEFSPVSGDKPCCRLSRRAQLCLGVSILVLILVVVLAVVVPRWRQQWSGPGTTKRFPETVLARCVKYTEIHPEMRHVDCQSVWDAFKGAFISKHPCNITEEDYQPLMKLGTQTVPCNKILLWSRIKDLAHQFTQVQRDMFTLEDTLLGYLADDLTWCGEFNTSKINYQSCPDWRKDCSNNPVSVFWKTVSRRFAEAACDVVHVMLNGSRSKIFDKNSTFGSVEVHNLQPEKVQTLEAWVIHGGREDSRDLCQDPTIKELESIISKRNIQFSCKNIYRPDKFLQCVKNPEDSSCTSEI
pIC50: −log10 of the molar value.
recorded endpoint: pIC50

Consider the worked cases shown below.
chemical structure: Cn1c(=O)cc(Nc2ccc(C#N)cc2)c2nc(-n3ccnc3)ncc21
pIC50: > 8.00
--
chemical structure: Cn1c(=O)cc(N[C@H]2CC[C@H](C(C)(C)O)CC2)c2nc(-n3ccnc3)ccc21
pIC50: 7.00 to 8.00
--
chemical structure: Cn1c(=O)cc(Nc2ccc(OCCN3CCCC3)nc2)c2nc(-n3ccnc3)ncc21
pIC50: 7.00 to 8.00
--
chemical structure: CN(C)CCOc1ccc(Nc2cc(=O)n(C)c3ccc(-n4ccnc4)cc23)cn1
pIC50: 7.00 to 8.00
--
chemical structure: COCCO[C@H]1CC[C@H](Nc2cc(=O)n(C)c3cnc(-n4ccnc4)nc23)CC1
pIC50: 7.00 to 8.00

Consider the additional molecule presented here.
Query string: Name the recorded pIC50 for `CN(C)C(=O)CO[C@H]1CC[C@H](Nc2cc(=O)n(C)c3ccc(-n4ccnc4)cc23)CC1` .
Result string: 7.00 to 8.00

Measured values drawn from patent US11952377B2 for this set.
